Reported bioavailability by item:
# PROTOCOL SUMMARY: Bioavailability (F) in the rat
# Assay type: in vivo
# CONDITION DETAILS: plasma, 3 mg/kg; male rat, oral vs iv AUC, dose normalised

MOLECULE SMILES	bioavailability / %
C[C@@H](Nc1cc(NS(=O)(=O)N2CCC2)nc(SCc2cccc(F)c2F)n1)[C@@H](O)CO	49
Cc1cccc(CSc2nc(N[C@H](C)CO)cc(NS(C)(=O)=O)n2)c1F	44

* * *

# PROTOCOL SUMMARY: Measurement of plasma protein binding (PPB) by equilibrium dialysis
# Type: in vitro ADME, human
# CONDITION DETAILS: human, plasma, pH 7.4, human plasma, equilibrium dialysis, 37° C., pH 7.4; read-out: Human plasma protein binding PPB (% free)

COMPOUND	BOUND SIGN	fraction unbound at 18 h, 10 µM
C[C@@H](Nc1cc(NS(=O)(=O)N2CCC2)nc(SCc2cccc(F)c2F)n1)[C@@H](O)CO [Example 1]	=	0.019
Cc1cccc(CSc2nc(N[C@H](C)CO)cc(NS(C)(=O)=O)n2)c1F [Example 39]	=	0.01
Cc1cccc(CSc2nc(N[C@H](C)CO)cc(NS(=O)(=O)N3CCC3)n2)c1F [Example 40]	<	0.002

* * *

# MEASURED TARGET: human CXCR2 receptor (Homo sapiens)
# Construct: expressed in transfected cells; host or cells: HEK293, stably transfected geneticin-resistant clones, vector RcCMV; membranes purified by sucrose gradient
# Sequence (P25025 whole entry): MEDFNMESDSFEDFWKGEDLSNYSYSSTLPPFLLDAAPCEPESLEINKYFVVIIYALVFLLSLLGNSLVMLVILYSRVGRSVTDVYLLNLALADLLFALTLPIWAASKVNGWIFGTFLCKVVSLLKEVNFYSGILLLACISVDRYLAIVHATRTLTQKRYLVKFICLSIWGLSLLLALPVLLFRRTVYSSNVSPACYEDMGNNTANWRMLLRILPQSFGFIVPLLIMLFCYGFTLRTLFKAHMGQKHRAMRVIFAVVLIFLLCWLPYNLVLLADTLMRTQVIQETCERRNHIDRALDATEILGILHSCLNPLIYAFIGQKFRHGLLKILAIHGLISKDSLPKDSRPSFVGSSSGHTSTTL
# PROTOCOL SUMMARY: Potency (pIC50) ligand binding assay, inhibition of [125I]IL-8 binding
# CONDITION DETAILS: inhibition of specific [125I]IL-8 (0.06 nM) binding, membranes of HEK293 cells transfected with human recombinant CXCR2

MOLECULE	VALUE UNITS	IC50
Cc1cccc(CSc2nc(N[C@H](C)CO)cc(NS(C)(=O)=O)n2)c1F [Example 39]	nM	3.98
Cc1ccc(CSc2nc(N[C@H](C)CO)cc(NS(=O)(=O)N3CCC3)n2)c(F)c1C [Example 42]	nM	7.94
Cc1ccc(CSc2nc(N[C@H](C)CO)cc(NS(=O)(=O)N3CCC3)n2)c(F)c1C [Example 41]	nM	3.16
Cc1cccc(CSc2nc(N[C@H](C)CO)cc(NS(=O)(=O)N3CCC3)n2)c1F [Example 40]	nM	2.51
CS(=O)(=O)Nc1cc(NC(CO)CO)nc(SCc2ccccc2)n1 [Example 21]	nM	2510

* * *

# PROTOCOL SUMMARY: Human hepatic intrinsic clearance (CLint) assay in human hepatocytes
# Assay type: in vitro ADME
# CONDITION DETAILS: human, human hepatocytes in suspension, pH 7.4, human hepatocytes; unit inferred; read-out: hepatic intrinsic clearance (Clint)
Listing of entries alongside the reported hepatocyte CLint at 1 µM.

MOLECULE SMILES	hepatocyte CLint at 1 µM / µL/min/1e6 cells
CS(=O)(=O)Nc1cc(NC(CO)CO)nc(SCc2ccccc2)n1	2.3
C[C@@H](Nc1cc(NS(=O)(=O)N2CCC2)nc(SCc2cccc(F)c2F)n1)[C@@H](O)CO	2.1

* * *

Listing of entries alongside the reported hepatocyte CLint at 1 µM.
# PROTOCOL SUMMARY: Human hepatic intrinsic clearance (CLint) assay in human hepatocytes
# Type: in vitro ADME
# CONDITION DETAILS: human, human hepatocytes in suspension, pH 7.4, human hepatocytes, protein free suspension buffer, pH 7.4, 37° C.; read-out: Human hepatocyte Intrinsic-clearance assay CLint

MOLECULE SMILES	hepatocyte CLint at 1 µM [µL/min/1e6 cells]
Cc1cccc(CSc2nc(N[C@H](C)CO)cc(NS(C)(=O)=O)n2)c1F	5.1
C[C@@H](Nc1cc(NS(=O)(=O)N2CCC2)nc(SCc2cccc(F)c2F)n1)[C@@H](O)CO	2.1
Cc1ccc(CSc2nc(N[C@H](C)CO)cc(NS(=O)(=O)N3CCC3)n2)c(F)c1C	12
Cc1cccc(CSc2nc(N[C@H](C)CO)cc(NS(=O)(=O)N3CCC3)n2)c1F	9
CS(=O)(=O)Nc1cc(NC(CO)CO)nc(SCc2ccccc2)n1	2.3
